Target: T1, Human CD19-his protein (human, UniProt P15391 20-291)
T1 construct: bought protein; also called human CD19 protein; recombinant human CD19-His; not shown: His tag
T1 sequence (looked up): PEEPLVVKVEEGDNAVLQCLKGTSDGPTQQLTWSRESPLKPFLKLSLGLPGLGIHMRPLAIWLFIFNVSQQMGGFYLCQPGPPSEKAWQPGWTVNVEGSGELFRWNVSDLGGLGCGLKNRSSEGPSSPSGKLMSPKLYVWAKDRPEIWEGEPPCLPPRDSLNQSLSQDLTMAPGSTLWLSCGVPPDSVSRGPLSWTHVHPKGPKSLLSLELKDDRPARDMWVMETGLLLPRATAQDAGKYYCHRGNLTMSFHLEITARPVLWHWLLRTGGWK
Experiment: ELISA, antibody at 0.10 nM
# OD450 values compiled below

F5.2.9 (antibody, human IgG1, V domains shown, human-murine chimeric antibody, human IgG1) VH: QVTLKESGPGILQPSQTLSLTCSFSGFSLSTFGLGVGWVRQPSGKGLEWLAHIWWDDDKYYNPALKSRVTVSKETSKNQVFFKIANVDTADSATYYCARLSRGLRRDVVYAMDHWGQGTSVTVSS VL: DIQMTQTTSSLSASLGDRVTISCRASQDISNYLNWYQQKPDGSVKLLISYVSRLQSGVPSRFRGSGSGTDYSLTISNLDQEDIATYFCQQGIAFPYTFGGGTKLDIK: 1.05

Then there is this binder:
For record F3.121.4 (antibody, human IgG1, V domains shown, human-murine chimeric antibody, human IgG1; also called chimeric antibody F3.121.4) VH: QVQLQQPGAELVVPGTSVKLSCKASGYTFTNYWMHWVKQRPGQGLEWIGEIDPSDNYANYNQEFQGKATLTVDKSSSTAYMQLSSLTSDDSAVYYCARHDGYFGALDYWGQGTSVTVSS VL: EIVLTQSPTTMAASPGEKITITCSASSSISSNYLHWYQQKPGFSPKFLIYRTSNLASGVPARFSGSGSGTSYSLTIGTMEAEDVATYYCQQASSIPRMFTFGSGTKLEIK the listed OD450 is 0.5
